Tgt: LasR (Pseudomonas aeruginosa)
Sequence (P25084 whole entry): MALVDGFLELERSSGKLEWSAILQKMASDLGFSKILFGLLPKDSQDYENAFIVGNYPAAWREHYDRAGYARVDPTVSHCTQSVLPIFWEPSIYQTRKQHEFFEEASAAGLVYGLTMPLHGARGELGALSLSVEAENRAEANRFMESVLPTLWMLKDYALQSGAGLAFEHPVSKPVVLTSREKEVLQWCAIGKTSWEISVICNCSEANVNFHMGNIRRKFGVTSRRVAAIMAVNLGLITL
Procedure text: LasR antagonism, P. aeruginosa PAO-JP2 GFP reporter, in competition with OdDHL
Format: cell-based
Experimental conditions: PAO-JP2; vs 150 nM OdDHL (approximate EC50)
Quantity kind: pIC50
Just so you know, pIC50 here is -log10 of the concentration in molar units; reply with that number alone.

QUERY: Fill in: pIC50 of CCCCCCCCCNC(=O)CC(=O)c1ccccc1 [V-06–018, N-nonyl-3-oxo-3-phenylpropanamide] is ___
RESULT: 5.64
